Molecular target: interaction between LAG3 and MHC-II (Homo sapiens, UniProt P18627)
Construct: purchased Cisbio US Inc
Sequence (P18627 23-450 limits assumed): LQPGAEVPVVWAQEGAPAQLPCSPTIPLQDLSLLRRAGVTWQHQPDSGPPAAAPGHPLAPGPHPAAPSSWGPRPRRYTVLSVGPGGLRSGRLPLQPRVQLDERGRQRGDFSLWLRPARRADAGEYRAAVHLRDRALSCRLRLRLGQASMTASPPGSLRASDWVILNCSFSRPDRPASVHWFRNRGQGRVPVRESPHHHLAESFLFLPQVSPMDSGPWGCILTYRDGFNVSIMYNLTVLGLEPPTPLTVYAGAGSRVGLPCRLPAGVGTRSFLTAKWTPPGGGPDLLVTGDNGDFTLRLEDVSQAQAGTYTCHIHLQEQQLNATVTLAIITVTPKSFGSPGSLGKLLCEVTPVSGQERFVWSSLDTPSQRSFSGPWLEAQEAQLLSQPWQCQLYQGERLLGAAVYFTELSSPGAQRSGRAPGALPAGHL
Test: HTRF (TR-FRET) LAG3/MHC-II binding assay
Details: 10-fold dilutions starting at 100 μM or 10 μM; FIGS. 2A-9B
Non-standard residues stand in square brackets, D forms with d. Primed or numbered codes have the meaning given here. No end group written: not given here. PEG4′ = PEG linker of 4 PEG units
QUANTITY NAME: response in dilution curve (HTRF signal)

SUBSTANCE	VALUE OBSERVED
LG42: peptide LG42 (LAG3-42; SEQ ID NO:6) (DWNFQQWDWKKHNHLDSHVV; LAG3-42 peptide) [reference compound]	no response
LD10da: peptide LD10da (SEQ ID NO:8) (STGQISTLRVNITAPLSQ; LD10da peptide) [reference compound]	no response
H2N-(dS)TGQISTLRVNITAPLSQ^1-PEG4-QSLPATINVRLTSIQGT(dS)^2-amide [BT10]	activity at 100 μM
Ac-QSLPATINVRLTSIQGT(dS)^2-PEG4-QSLPATINVRLTSIQGT(dS)^2-amide (peptide 1 Ac-QSLPATINVRLTSIQGT[dS][PEG4′]; peptide 2 QSLPATINVRLTSIQGT[dS]-NH2; also: chain 1 C-terminus joined to chain 2 N-terminus via PEG4) [BT11, peptide conjugate of two LD10 peptides (reverse, reverse) separated by a PEG4 linker]	activity at 100 μM
